Attribute: solubility at 24 h
- assayOverview: Water solubility at room temperature (excess solid stirred in deionized water, HPLC)
- statedConditions: deionized water, thermodynamic from solid

chemicalStructure | solubility at 24 h
CN(CCN)C(=O)n1nc(Cn2ccc(C(F)(F)F)c(Oc3cc(Cl)cc(C#N)c3)c2=O)c2cccnc21.O=S(=O)(O)c1ccccc1 | 1100 µg/mL
N#Cc1cc(Cl)cc(Oc2c(C(F)(F)F)ccn(Cc3n[nH]c4ncccc34)c2=O)c1 | 0.2 µg/mL

###

- assayOverview: Water solubility at room temperature (excess solid stirred in deionized water, HPLC)
- statedConditions: thermodynamic from solid
assayMetric: solubility at 4 h

chemicalStructure | reported
N#Cc1cc(Cl)cc(Oc2c(C(F)(F)F)ccn(Cc3nn(COP(=O)([O-])O)c4ncccc34)c2=O)c1.O.[K+] | 12 mg/mL
